tested on: SK-MEL-5; assay: NCI tumour cell line growth inhibition, 48 h
Active and inactive are the calls of the source. Cut-off read from the data, not from the text of the source: active = GI50 up to about 1.1 µM and inactive = higher.
MEASURED_QUANTITY: GI50

Here are 5 molecules together with their reported answers.
MOLECULE: COc1cc(/C=N/N=C(\N)NO)cc(Cl)c1O
MEASURED_QUANTITY: GI50
ASSAY_VALUE: 33.4 µM (inactive)
//
MOLECULE: O=C(CC(=O)c1cccc([N+](=O)[O-])c1)C(=O)Nc1ccccc1
MEASURED_QUANTITY: GI50
ASSAY_VALUE: > 100 µM (inactive)
//
MOLECULE: Cc1n[nH]c(=O)n1/N=C/c1cccnc1
MEASURED_QUANTITY: GI50
ASSAY_VALUE: > 100 µM (inactive)
//
MOLECULE: C/C=C/C1(NS(=O)(=O)c2ccc(C)cc2)CCC(C(C)(C)C)CC1 (stereo unspecified)
MEASURED_QUANTITY: GI50
ASSAY_VALUE: 17.5 µM (inactive)
//
MOLECULE: COc1cccc(C2N3CCCCC3[C@@H]3c4[nH]c5ccccc5c4CCN23)c1OC (stereo partly specified)
MEASURED_QUANTITY: GI50
ASSAY_VALUE: 15.8 µM (inactive)

// switching to the query molecule
Sample O=CNNC(=O)Nc1cccc2ccccc12 ; GI50 observed: > 100 µM (inactive)

Attribution: ChEMBL document CHEMBL1201862
